System tested: HiBit-BRG1 fusion protein (Homo sapiens, UniProt P51532)
Construct: expressed in transfected cells
Sequence (P51532 whole entry, the tested form may be a part): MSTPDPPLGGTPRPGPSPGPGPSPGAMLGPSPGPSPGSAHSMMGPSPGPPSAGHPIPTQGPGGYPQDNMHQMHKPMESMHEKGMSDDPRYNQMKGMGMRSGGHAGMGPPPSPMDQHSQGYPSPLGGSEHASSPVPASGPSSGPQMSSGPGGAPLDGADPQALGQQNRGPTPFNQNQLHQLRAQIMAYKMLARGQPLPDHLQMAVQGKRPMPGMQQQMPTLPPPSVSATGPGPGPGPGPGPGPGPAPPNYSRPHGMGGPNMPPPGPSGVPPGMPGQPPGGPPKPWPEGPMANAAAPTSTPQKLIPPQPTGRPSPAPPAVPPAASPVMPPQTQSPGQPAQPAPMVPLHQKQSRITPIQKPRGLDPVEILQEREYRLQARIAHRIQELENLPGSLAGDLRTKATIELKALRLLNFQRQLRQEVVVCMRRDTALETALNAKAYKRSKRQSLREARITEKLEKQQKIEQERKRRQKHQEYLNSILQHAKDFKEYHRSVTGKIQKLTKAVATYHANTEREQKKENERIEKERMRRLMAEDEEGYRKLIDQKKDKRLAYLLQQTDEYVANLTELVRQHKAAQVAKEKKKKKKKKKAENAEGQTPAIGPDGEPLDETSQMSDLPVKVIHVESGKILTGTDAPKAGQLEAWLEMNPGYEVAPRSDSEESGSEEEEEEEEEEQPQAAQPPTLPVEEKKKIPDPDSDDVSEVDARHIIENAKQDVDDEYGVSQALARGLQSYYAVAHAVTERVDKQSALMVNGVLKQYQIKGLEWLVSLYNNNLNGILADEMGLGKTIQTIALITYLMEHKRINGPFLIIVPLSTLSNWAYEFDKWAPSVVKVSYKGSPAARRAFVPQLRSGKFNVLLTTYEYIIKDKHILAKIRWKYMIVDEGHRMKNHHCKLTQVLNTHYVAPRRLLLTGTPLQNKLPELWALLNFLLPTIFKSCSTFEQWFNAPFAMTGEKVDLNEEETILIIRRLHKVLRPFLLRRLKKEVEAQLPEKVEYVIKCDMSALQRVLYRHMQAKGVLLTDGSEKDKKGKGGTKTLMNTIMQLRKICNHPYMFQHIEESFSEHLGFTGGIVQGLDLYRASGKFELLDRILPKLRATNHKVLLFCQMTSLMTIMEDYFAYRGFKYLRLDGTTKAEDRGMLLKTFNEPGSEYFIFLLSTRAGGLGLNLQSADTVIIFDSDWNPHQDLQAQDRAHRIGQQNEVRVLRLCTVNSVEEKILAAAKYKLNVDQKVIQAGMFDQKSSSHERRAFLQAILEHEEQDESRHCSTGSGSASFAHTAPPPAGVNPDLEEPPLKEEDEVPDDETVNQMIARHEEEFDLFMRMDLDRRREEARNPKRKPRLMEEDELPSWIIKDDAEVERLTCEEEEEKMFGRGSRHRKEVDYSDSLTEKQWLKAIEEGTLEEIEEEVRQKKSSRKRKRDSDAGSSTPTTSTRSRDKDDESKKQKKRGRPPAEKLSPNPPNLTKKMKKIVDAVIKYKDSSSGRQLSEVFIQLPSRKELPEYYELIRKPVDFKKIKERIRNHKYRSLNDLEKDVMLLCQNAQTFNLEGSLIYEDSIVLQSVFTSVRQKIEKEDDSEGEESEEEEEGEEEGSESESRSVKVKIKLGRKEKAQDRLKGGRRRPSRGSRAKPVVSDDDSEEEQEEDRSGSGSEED
Measurement notes: HiBiT-BRG1 cell-based degradation assay (Nano-Glo HiBiT Lytic Detection, 24 h)
Run parameters: HeLa cell line expressing HiBit-BRG1 and LgBit, read-out: BRMG1 HiBit Degradation IC50
Quantity name: DC50

Dear colleague, I am looking for the recorded DC50 of the following compound: Cc1ncsc1-c1ccc([C@H](C)NC(=O)[C@@H]2C[C@@H](O)CN2C(=O)[C@@H](c2cc(N3CCN(CC45CC(c6cc7cc(-c8ccccc8O)nnc7[nH]6)(C4)C5)CC3)no2)C(C)C)cc1 (single isomer, unassigned) [Compound 233]
> 10 nM

Dear colleague, I am looking for the recorded DC50 of the following compound: Cc1ncsc1-c1ccc([C@H](C)NC(=O)[C@@H]2C[C@@H](O)CN2C(=O)[C@@H](c2cc(OCCNCc3ccc(Cc4cc5cc(-c6ccccc6O)nnc5[nH]4)cc3)no2)C(C)C)cc1 (racemic) [Compound 295]
> 100 nM

Dear colleague, I am looking for the recorded DC50 of the following compound: Cc1ncsc1-c1ccc([C@H](C)NC(=O)[C@@H]2C[C@@H](O)CN2C(=O)[C@@H](c2cc(OCCN3CC(c4[nH]c5nnc(-c6ccccc6O)cc5c4C)C3)no2)C(C)C)cc1 (racemic) [Compound 307]
> 10 nM

Dear colleague, I am looking for the recorded DC50 of the following compound: Cc1ncsc1-c1ccc([C@H](C)NC(=O)[C@@H]2C[C@@H](O)CN2C(=O)[C@@H](c2cc(OCCCN3CC4(CC(c5c[nH]c6nnc(-c7ccccc7O)cc56)C4)C3)no2)C(C)C)cc1 (racemic) [Compound 211]
> 100 nM

Dear colleague, I am looking for the recorded DC50 of the following compound: Cc1ncsc1-c1ccc([C@H](C)NC(=O)[C@@H]2C[C@@H](O)CN2C(=O)[C@@H](c2cc(OCCN3CCN(CCN4CC(c5cc6cc(-c7ccccc7O)nnc6[nH]5)C4)CC3)no2)C(C)C)cc1 (racemic) [Compound 58]
> 100 nM

Dear colleague, I am looking for the recorded DC50 of the following compound: Cc1ncsc1-c1ccc([C@H](C)NC(=O)[C@@H]2C[C@@H](O)CN2C(=O)[C@@H](c2cc(N3CCN(C(=O)c4cc5cc(-c6ccccc6O)nnc5[nH]4)CC3)no2)C(C)C)cc1 (racemic) [Compound 253]
> 100 nM

Dear colleague, I am looking for the recorded DC50 of the following compound: Cc1ncsc1-c1ccc([C@H](C)NC(=O)[C@@H]2C[C@@H](O)CN2C(=O)[C@@H](c2onc(OCCN3CC(c4cc5cc(-c6ccccc6O)nnc5[nH]4)C3)c2Cl)C(C)C)cc1 (racemic) [Compound 266]
> 100 nM

Dear colleague, I am looking for the recorded DC50 of the following compound: Cc1ncsc1-c1ccc([C@H](C)NC(=O)[C@@H]2C[C@@H](O)CN2C(=O)[C@@H](c2cc(OCCN3CC(CCCc4cc5cc(-c6ccccc6O)nnc5[nH]4)C3)no2)C(C)C)cc1 (racemic) [Compound 243]
> 1000 nM

Dear colleague, I am looking for the recorded DC50 of the following compound: Cc1ncsc1-c1ccc([C@H](C)NC(=O)[C@@H]2C[C@@H](O)CN2C(=O)[C@@H](c2cc(OCCN3CC(c4[nH]c5nnc(-c6cc(F)ccc6O)cc5c4C)C3)no2)C(C)C)cc1 (racemic) [Compound 130]
> 100 nM

Dear colleague, I am looking for the recorded DC50 of the following compound: Cc1ncsc1-c1ccc([C@H](C)NC(=O)[C@@H]2C[C@@H](O)CN2C(=O)[C@@H](c2cc(N3CCC(N4CC(c5cc6cc(-c7ccccc7O)nnc6[nH]5)C4)CC3)no2)C(C)C)cc1 (racemic) [Compound 248]
> 100 nM

Dear colleague, I am looking for the recorded DC50 of the following compound: Cc1ncsc1-c1ccc([C@H](C)NC(=O)[C@@H]2C[C@@H](O)CN2C(=O)[C@@H](c2cc(N3CCC(CN[C@H]4CCc5[nH]c6nnc(-c7ccccc7O)cc6c5C4)CC3)no2)C(C)C)cc1 [Compound 159]
> 100 nM

Dear colleague, I am looking for the recorded DC50 of the following compound: Cc1ncsc1-c1ccc([C@H](C)NC(=O)[C@@H]2C[C@@H](O)CN2C(=O)[C@@H](c2cc(N3CCC(CN4CC5(Cc6cc(-c7ccccc7O)nnc6N5)C4)CC3)no2)C(C)C)cc1 (racemic) [Compound 96]
> 100 nM

Dear colleague, I am looking for the recorded DC50 of the following compound: Cc1ncsc1-c1ccc([C@H](C)NC(=O)[C@@H]2C[C@@H](O)CN2C(=O)[C@@H](c2cc(OCCNC3CC4(C3)CC(c3cc5cc(-c6ccccc6O)nnc5[nH]3)C4)no2)C(C)C)cc1 (mixture of isomers) [Compound 223]
> 100 nM

Dear colleague, I am looking for the recorded DC50 of the following compound: Cc1ncsc1-c1ccc([C@H](C)NC(=O)[C@@H]2C[C@@H](O)CN2C(=O)[C@@H](c2cc(N3CCC(c4cnc(N5CCC(c6c[nH]c7nnc(-c8ccccc8O)cc67)CC5)nc4)CC3)no2)C(C)C)cc1 (single isomer, unassigned) [Compound 92]
> 10 nM

Dear colleague, I am looking for the recorded DC50 of the following compound: Cc1ncsc1-c1ccc([C@H](C)NC(=O)[C@@H]2C[C@@H](O)CN2C(=O)[C@@H](c2cc(OCC(=O)N[C@@H]3CCc4[nH]c5nnc(-c6ccccc6O)cc5c4C3)no2)C(C)C)cc1 [Compound 150]
> 100 nM

Dear colleague, I am looking for the recorded DC50 of the following compound: Cc1ncsc1-c1ccc([C@H](C)NC(=O)[C@@H]2C[C@@H](O)CN2C(=O)C(c2cc(N3CCC(C(=O)N4CC(c5cc6cc(-c7ccccc7O)nnc6[nH]5)C4)CC3)no2)C(C)C)cc1 (mixture of isomers) [Compound 274]
> 100 nM

Dear colleague, I am looking for the recorded DC50 of the following compound: Cc1ncsc1-c1ccc([C@H](C)NC(=O)[C@@H]2C[C@@H](O)CN2C(=O)[C@@H](c2cc(OCCN3[C@@H]4CC[C@H]3CN(c3cc5cc(-c6ccccc6O)nnc5[nH]3)C4)no2)C(C)C)cc1 (racemic) [Compound 245]
> 100 nM

====

Hi there, I'd appreciate the recorded Dmax for every entry that follows.
System tested: HiBit-BRG1 fusion protein (Homo sapiens, UniProt P51532)
Construct: expressed in transfected cells
Measurement notes: HiBiT-BRG1 cell-based degradation assay (Nano-Glo HiBiT Lytic Detection, 24 h)
Run parameters: HeLa cell line expressing HiBit-BRG1 and LgBit, read-out: BRG1 HiBit Degradation Maximum (%)

Dear colleague, I am looking for the recorded Dmax of the following compound: Cc1ncsc1-c1ccc([C@H](C)NC(=O)[C@@H]2C[C@@H](O)CN2C(=O)C(c2cc(OCC(=O)N[C@@]3(C(=O)O)CCc4[nH]c5nnc(-c6ccccc6O)cc5c4C3)no2)C(C)C)cc1 (single isomer, unassigned)
< 50%

Dear colleague, I am looking for the recorded Dmax of the following compound: Cc1ncsc1-c1ccc([C@H](C)NC(=O)[C@@H]2C[C@@H](O)CN2C(=O)[C@@H](c2cc(OCCN3CCC(c4c[nH]c5nnc(-c6ccccc6O)cc45)CC3)no2)C(C)C)cc1 (racemic)
< 50%

Dear colleague, I am looking for the recorded Dmax of the following compound: Cc1ncsc1-c1ccc(CNC(=O)[C@@H]2C[C@@H](O)CN2C(=O)[C@@H](NC(=O)CNC(=O)[C@@H]2CCc3[nH]c4nnc(-c5ccccc5O)cc4c3C2)C(C)(C)C)cc1 (single isomer, unassigned)
< 50%

Dear colleague, I am looking for the recorded Dmax of the following compound: Cc1ncsc1-c1ccc([C@H](C)NC(=O)[C@@H]2C[C@@H](O)CN2C(=O)[C@@H](c2cc(OCCN(C)Cc3cc4cc(-c5ccccc5O)nnc4[nH]3)no2)C(C)C)cc1 (racemic)
< 50%

====

System tested: HiBit-BRG1 fusion protein (Homo sapiens)
Construct: expressed in transfected cells
Measurement notes: HiBiT-BRG1 cell-based degradation assay (Nano-Glo HiBiT Lytic Detection, 24 h)
Run parameters: HeLa cell line expressing HiBit-BRG1 and LgBit, read-out: BRMG1 HiBit Degradation IC50
Quantity name: DC50

Dear colleague, I am looking for the recorded DC50 of the following compound: Cc1ncsc1-c1ccc([C@H](C)NC(=O)[C@@H]2C[C@@H](O)CN2C(=O)[C@@H](c2cc(N3CCC(N(C)[C@H]4CCc5[nH]c6nnc(-c7ccccc7O)cc6c5C4)CC3)no2)C(C)C)cc1 (racemic)
> 100 nM

Dear colleague, I am looking for the recorded DC50 of the following compound: Cc1ncsc1-c1ccc([C@H](C)NC(=O)[C@@H]2C[C@@H](O)CN2C(=O)[C@@H](c2cc(N3CCC(CN4CCc5[nH]c6nnc(-c7ccccc7O)cc6c5[C@@H]4C)CC3)no2)C(C)C)cc1 (racemic)
> 10 nM

Dear colleague, I am looking for the recorded DC50 of the following compound: O=C1CCC(N2C(=O)c3cccc(OCCCC(=O)N4CC(c5cc6cc(-c7ccccc7O)nnc6[nH]5)C4)c3C2=O)C(=O)N1 (stereo not drawn)
> 1000 nM

Dear colleague, I am looking for the recorded DC50 of the following compound: Cc1ncsc1-c1ccc([C@H](C)NC(=O)[C@@H]2C[C@@H](O)CN2C(=O)[C@@H](c2cc(OCCN3CC(c4[nH]c5nnc(-c6cc(F)cc(Cl)c6O)cc5c4C)C3)no2)C(C)C)cc1 (racemic)
> 100 nM

Dear colleague, I am looking for the recorded DC50 of the following compound: O=C1CCC(N2C(=O)c3cccc(OCCCCC(=O)N4CC(c5cc6cc(-c7ccccc7O)nnc6[nH]5)C4)c3C2=O)C(=O)N1 (stereo not drawn)
> 1000 nM

Dear colleague, I am looking for the recorded DC50 of the following compound: Cc1ncsc1-c1ccc([C@H](C)NC(=O)[C@@H]2C[C@@H](O)CN2C(=O)[C@@H](c2cc(OCCN3CCC4(CC3)CC(c3cc5cc(-c6ccccc6O)nnc5[nH]3)C4)no2)C(C)C)cc1 (racemic)
> 100 nM

Dear colleague, I am looking for the recorded DC50 of the following compound: Cc1ncsc1-c1ccc([C@H](C)NC(=O)[C@@H]2C[C@@H](O)CN2C(=O)[C@@H](c2cc(N3CCC(CN4CCc5[nH]c6nnc(-c7ccccc7O)cc6c5C4)CC3)no2)C(C)C)cc1 (racemic)
> 100 nM

Dear colleague, I am looking for the recorded DC50 of the following compound: CC(C)[C@@H](C(=O)N1C[C@H](O)C[C@H]1C(=O)N[C@@H](C)c1ccc(-c2ccccc2F)cc1)c1cc(OCCN2CC(c3cc4cc(-c5ccccc5O)nnc4[nH]3)C2)no1 (single isomer, unassigned)
> 1000 nM

Dear colleague, I am looking for the recorded DC50 of the following compound: Cc1ncsc1-c1ccc([C@H](C)NC(=O)[C@@H]2C[C@@H](O)CN2C(=O)[C@@H](c2cc(OCCN3CCC(F)(c4cc5cc(-c6ccccc6O)nnc5[nH]4)CC3)no2)C(C)C)cc1 (racemic)
> 100 nM

Dear colleague, I am looking for the recorded DC50 of the following compound: Cc1ncsc1-c1ccc([C@H](C)NC(=O)[C@@H]2C[C@@H](O)CN2C(=O)[C@@H](c2cc(OCCN3CC4(C3)CN(c3cc5cc(-c6ccccc6O)nnc5[nH]3)C4)no2)C(C)C)cc1 (racemic)
> 100 nM

Dear colleague, I am looking for the recorded DC50 of the following compound: Cc1ncsc1-c1ccc([C@H](C)NC(=O)[C@@H]2C[C@@H](O)CN2C(=O)[C@H](c2cc([C@H]3CC[C@H](c4cnc(N5CCC(c6c[nH]c7nnc(-c8ccccc8O)cc67)CC5)nc4)CC3)no2)C(C)C)cc1
> 100 nM

Dear colleague, I am looking for the recorded DC50 of the following compound: Cc1ncsc1-c1ccc([C@H](C)NC(=O)[C@@H]2C[C@@H](O)CN2C(=O)[C@@H](c2cc(OCCNC34CC(c5[nH]c6nnc(-c7ccccc7O)cc6c5C)(C3)C4)no2)C(C)C)cc1 (racemic)
> 10 nM

The reported numbers originate from patent US20240024488A1.
